biological target: TNF-α converting enzyme (TACE) (Homo sapiens, UniProt P78536); assay: Test procedure for measuring TACE inhibition (fluorescent peptidyl substrate); type: biochemical; conditions: Table 1
Sequence (P78536 215-824): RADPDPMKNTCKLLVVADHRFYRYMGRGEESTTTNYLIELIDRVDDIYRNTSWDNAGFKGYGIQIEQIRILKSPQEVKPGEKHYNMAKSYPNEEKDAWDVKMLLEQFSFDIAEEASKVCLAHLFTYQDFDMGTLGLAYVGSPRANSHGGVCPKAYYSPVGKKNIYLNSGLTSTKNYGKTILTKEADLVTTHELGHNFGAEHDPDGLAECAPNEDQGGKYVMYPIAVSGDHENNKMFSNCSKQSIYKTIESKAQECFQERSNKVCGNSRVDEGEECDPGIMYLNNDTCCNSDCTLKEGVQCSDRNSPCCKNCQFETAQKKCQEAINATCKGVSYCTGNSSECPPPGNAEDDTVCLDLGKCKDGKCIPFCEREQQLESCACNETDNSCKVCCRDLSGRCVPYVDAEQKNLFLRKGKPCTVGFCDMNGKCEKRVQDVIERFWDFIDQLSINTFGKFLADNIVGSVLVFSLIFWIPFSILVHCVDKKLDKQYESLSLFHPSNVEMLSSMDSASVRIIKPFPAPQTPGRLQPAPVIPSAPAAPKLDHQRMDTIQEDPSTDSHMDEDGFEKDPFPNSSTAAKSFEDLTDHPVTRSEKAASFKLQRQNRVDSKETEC
pIC50: −log10 of the molar value.
Lab note: anything with pIC50 at or over 7 counts as TRUE; the rest go in FALSE.

Q) Reported pIC50 at or above 7? CC#CCOc1ccc(S(=O)(=O)C(C)(Cc2ccc(OCCN3CCCCC3)cc2)C(=O)NO)cc1 (stereo not drawn) [Example 1]
A) FALSE

Q) Reported pIC50 at or above 7? CC#CCOc1ccc([S+]([O-])C(CCCCNC(=O)CN2C(=O)c3ccccc3C2=O)C(=O)NO)cc1 (stereo not drawn) [Example 24]
A) TRUE

Q) Reported pIC50 at or above 7? CC#CCOc1ccc(S(=O)(=O)C(CCCCNC(=O)c2cnc3ccccc3c2)C(=O)NO)cc1 (stereo not drawn) [Example 38]
A) TRUE

Q) Reported pIC50 at or above 7? CC#CCOc1ccc(S(=O)(=O)C(CCCCNC(=O)CN2C(=O)c3ccccc3C2=O)C(=O)NO)cc1 (stereo not drawn) [Example 36]
A) TRUE

Q) Reported pIC50 at or above 7? CC#CCOc1ccc(S(=O)(=O)C(CCCCNC(=O)c2nccc3ccccc23)C(=O)NO)cc1 (stereo not drawn) [Example 41]
A) TRUE
